Origin of values: ChEMBL document CHEMBL1133582

# target.entity: UniProt:P25099
# measurement.description: Binding affinity against adenosine A1 receptor of rat brain cortical membranes using [3H]CHA
observable: Ki (nM)

mol=C#CCn1c(=O)c2c(nc(/C=C/c3cccc(OC)c3)n2C)n(C)c1=O units_label=nM measured_value=1280

(A) C#CCn1c(=O)c2c(nc(/C=C/c3cccc(N)c3)n2C)n(C)c1=O
(B) C#CCn1c(=O)c2c(nc(/C=C/c3cccc(Br)c3)n2C)n(CCCO)c1=O
Problem: Hi, I'm comparing two records. Which one has the lower Ki, A or B ? Answer = label.
Solution: B

###

# target.entity: Adenosine receptor A2b (Homo sapiens)
# Sequence (P29275 whole entry): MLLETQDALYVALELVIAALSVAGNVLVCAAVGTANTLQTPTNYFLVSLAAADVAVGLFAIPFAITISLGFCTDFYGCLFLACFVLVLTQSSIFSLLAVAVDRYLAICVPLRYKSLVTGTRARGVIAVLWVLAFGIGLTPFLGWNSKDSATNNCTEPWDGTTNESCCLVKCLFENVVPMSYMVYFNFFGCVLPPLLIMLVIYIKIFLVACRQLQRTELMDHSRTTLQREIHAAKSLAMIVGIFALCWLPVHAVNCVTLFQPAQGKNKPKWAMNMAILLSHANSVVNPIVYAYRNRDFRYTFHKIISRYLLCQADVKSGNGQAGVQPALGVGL
# measurement.description: Inhibition of NECA-induced stimulation of adenylate cyclase at human adenosine A2B receptor
pKi: −log10 of the molar value.
Quick reference: pKi of the listed items.

mol=C#CCn1c(=O)c2c(nc(/C=C/c3cccc(Br)c3)n2C)n(C)c1=O measured_value="< 5.00"

Problem: # lookup: pKi of `C#CCn1c(=O)c2c(nc(/C=C/c3cccc(OC)c3)n2C)n(CCCO)c1=O`
Solution: < 5.00

###

Record set of pKi for target or system Adenosine receptor A2a (Rattus norvegicus, UniProt P30543).
pKi: −log10 of the molar value.
observable: pKi

mol=C#CCn1c(=O)c2c(nc(/C=C/c3cccc(OC)c3)n2C)n(CCCO)c1=O observable=pKi measured_value=8.10

(P) C#CCn1c(=O)c2c(nc(/C=C/c3cccc(OC)c3)n2C)n(C)c1=O
(Q) C#CCn1c(=O)c2c(nc(/C=C/c3cccc(Br)c3)n2C)n(CCO)c1=O
Problem: Which value of pKi is greater, the one for P or the one for Q ? Identify your selection by its label.
Solution: P

###

# target.entity: UniProt P25099
# measurement.description: Binding affinity against adenosine A1 receptor of rat without and after pre-incubation with alkaline phosphatase
observable: pKi
By convention, pKi is the negative base-10 log of a molar concentration.

Problem: Please report the recorded pKi for `C#CCn1c(=O)c2c(nc(/C=C/c3cccc(OC)c3)n2C)n(CCCOP(=O)(O)O)c1=O` .
Solution: 5.95

###

# target.entity: Adenosine receptor A3 (Homo sapiens, UniProt P0DMS8)
# Sequence (P0DMS8 whole entry): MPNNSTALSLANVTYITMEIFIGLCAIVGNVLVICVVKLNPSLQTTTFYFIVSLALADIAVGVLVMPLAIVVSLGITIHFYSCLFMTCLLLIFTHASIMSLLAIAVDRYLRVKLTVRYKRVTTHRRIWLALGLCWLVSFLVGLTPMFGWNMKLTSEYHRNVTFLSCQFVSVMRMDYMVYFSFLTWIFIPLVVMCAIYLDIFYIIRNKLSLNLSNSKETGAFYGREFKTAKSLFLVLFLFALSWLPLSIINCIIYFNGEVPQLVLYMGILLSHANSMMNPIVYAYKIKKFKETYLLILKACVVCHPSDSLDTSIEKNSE
pKi: −log10 of the molar value.
observable: pKi

Problem: pKi for `C#CCn1c(=O)c2c(nc(/C=C/c3cccc(OC)c3)n2C)n(CCCO)c1=O` ?
Solution: < 5.00

###

# target.entity: Adenosine receptor A1 (Rattus norvegicus)
# Sequence (P25099 whole entry): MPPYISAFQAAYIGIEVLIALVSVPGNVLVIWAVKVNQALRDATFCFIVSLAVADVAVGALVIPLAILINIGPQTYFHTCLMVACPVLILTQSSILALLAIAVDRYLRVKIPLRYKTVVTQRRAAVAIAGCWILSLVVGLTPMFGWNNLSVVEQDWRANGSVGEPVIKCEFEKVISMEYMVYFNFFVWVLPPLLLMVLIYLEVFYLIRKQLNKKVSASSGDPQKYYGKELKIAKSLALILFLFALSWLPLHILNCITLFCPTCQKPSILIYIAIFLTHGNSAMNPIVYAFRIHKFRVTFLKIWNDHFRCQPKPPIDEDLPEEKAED
# measurement.description: Binding affinity against adenosine A1 receptor of rat brain cortical membranes using [3H]CHA
pKi: −log10 of the molar value.
observable: pKi

mol=C#CCn1c(=O)c2c(nc(/C=C/c3cccc(O)c3)n2C)n(C)c1=O measured_value=6.03
mol=C#CCn1c(=O)c2c(nc(/C=C/c3cccc(OC)c3)n2C)n(CCCO)c1=O measured_value=6.05
mol=C#CCn1c(=O)c2c(nc(/C=C/c3cccc(OC)c3)n2C)n(CCO)c1=O measured_value=5.98
mol=C#CCn1c(=O)c2c(nc(/C=C/c3cccc(Br)c3)n2C)n(CCO)c1=O measured_value=5.89
